List of log10(IC50) values.
Target: Acetylcholinesterase (Electrophorus electricus, UniProt O42275)
Sequence (O42275 whole entry): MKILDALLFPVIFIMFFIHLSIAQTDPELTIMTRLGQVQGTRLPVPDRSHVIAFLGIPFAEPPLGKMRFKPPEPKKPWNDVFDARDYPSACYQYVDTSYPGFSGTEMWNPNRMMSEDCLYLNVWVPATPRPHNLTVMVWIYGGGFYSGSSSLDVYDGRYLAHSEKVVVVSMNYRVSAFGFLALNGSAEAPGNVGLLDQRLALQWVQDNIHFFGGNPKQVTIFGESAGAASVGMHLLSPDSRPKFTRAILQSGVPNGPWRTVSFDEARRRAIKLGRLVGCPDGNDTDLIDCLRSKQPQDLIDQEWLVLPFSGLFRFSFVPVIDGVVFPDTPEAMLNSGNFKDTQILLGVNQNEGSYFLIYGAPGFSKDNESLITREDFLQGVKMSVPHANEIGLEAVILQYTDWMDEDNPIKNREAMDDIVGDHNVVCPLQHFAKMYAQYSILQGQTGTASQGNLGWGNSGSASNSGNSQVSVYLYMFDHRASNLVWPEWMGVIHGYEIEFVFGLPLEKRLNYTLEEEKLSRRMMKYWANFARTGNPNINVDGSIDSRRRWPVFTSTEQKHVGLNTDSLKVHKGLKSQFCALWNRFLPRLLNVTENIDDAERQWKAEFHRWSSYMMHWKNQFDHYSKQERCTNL
For clarity, the numbers are log10 values of IC50 expressed in nM.

Some compounds with known log10(IC50) results, for comparison:
1. CN(C)Cc1cc(=O)oc2cc(OCc3ccc(CO)cc3)ccc12 :: 3.11
2. CN(C)Cc1cccc(COc2ccc3c(CO)cc(=O)oc3c2)c1 :: 3.77
3. Cc1c(C)c2ccc(OCC3CCN(CCCCO)CC3)cc2oc1=O :: 2.70
4. Cc1c(C)c2ccc(OCC3CCN(Cc4ccc(CCO)cc4)CC3)cc2oc1=O :: 3.08
5. Cc1c(C)c2ccc(OCc3cccc(CN4CCC(CO)CC4)c3)cc2oc1=O :: 3.46
6. Cc1c(C)c2ccc(OCC3CCCN(Cc4cccc(CO)c4)C3)cc2oc1=O (stereo unspecified) :: 2.95
7. CN(C)Cc1ccc(COc2ccc3c(CO)cc(=O)oc3c2)cc1 :: 3.65
8. Cc1c(C)c2ccc(OCC3CCN(Cc4ccc(CO)cc4)CC3)cc2oc1=O :: 3.00

Form field log10(IC50) for item Cc1c(C)c2ccc(OCC3CCN(Cc4cccc(CO)c4)CC3)cc2oc1=O on Acetylcholinesterase (Electrophorus electricus, UniProt O42275): 3.00

// compound Cc1c(C)c2ccc(OCC3CCCN(Cc4ccc(CO)cc4)C3)cc2oc1=O (stereo unspecified) , assay Acetylcholinesterase (Electrophorus electricus, UniProt O42275), log10(IC50) value: 3.08

Field log10(IC50) (Acetylcholinesterase (Electrophorus electricus, UniProt O42275)), entry Cc1cc2ccc(OCC3CCN(Cc4cccc(CO)c4)CC3)cc2oc1=O : 3.51

----------
# IC50 measurements, system: UniProt O42275
Just the number in µM, nothing appended.

1) Cc1c(C)c2ccc(OCC3CCN(Cc4cccc(OCCCO)c4)CC3)cc2oc1=O :: 1.8
2) Cc1c(C)c2ccc(OCCC3CCN(CCCO)CC3)cc2oc1=O :: 0.72
3) Cc1c(C)c2ccc(OCC3CCN(CCCO)CC3)cc2oc1=O :: 1.3
4) Cc1cc(=O)oc2cc(OCC3CCN(Cc4ccc(CO)cc4)CC3)ccc12 :: 1.6
5) Cc1cc(=O)oc2cc(OCC3CCN(Cc4cccc(CO)c4)CC3)ccc12 :: 1.6

Now consider a different molecule.
Noted IC50 for Cc1cc2ccc(OCC3CCN(Cc4ccc(CO)cc4)CC3)cc2oc1=O , tested on UniProt O42275: 3

----------
Assay: Apparent permeability from apical to basolateral side in MDCK2-MDR1 cells by UV-Visible spectrophotometric method
Assay type: ADME, cell-based, Canis lupus familiaris
Conditions: dog, MDCK-MDR1
Entries annotated with measured Papp A→B
Show the value, then the unit it is measured in.

// below: answered compounds
1) Cc1c(C)c2ccc(OCC3CCN(CCCO)CC3)cc2oc1=O :: 9.92 ×10⁻⁶ cm/s
2) Cc1c(C)c2ccc(OCC3CCN(Cc4cccc(CO[N+](=O)[O-])c4)CC3)cc2oc1=O :: 12.4 ×10⁻⁶ cm/s
3) Cc1c(C)c2ccc(OCC3CCN(CCCO[N+](=O)[O-])CC3)cc2oc1=O :: 4.96 ×10⁻⁶ cm/s

Now consider a different compound.
// Papp A→B lookup, compound = Cc1c(C)c2ccc(OCC3CCN(Cc4cccc(CO)c4)CC3)cc2oc1=O , result: 19.8 ×10⁻⁶ cm/s
